Below is a list of entries, each paired with its recorded Photostability 24 hours value.
test: Photostability, percentage remaining undegraded under illumination or in the dark; settings: percentage remaining undegraded after 24 hours illumination
QUANTITY_MEASURED: Photostability 24 hours

{"MOL_SMILES": "Cc1cc2c(cc1C)C(=O)[C@]1(O)CCN(c3ccc4c(c3)OCCC4)C1=N2", "QUANTITY_MEASURED": "Photostability 24 hours", "RESULT": "<1%"}
{"MOL_SMILES": "COc1ccc(N2CC[C@@]3(O)C(=O)c4cc(C)c(C)cc4N=C23)cn1", "QUANTITY_MEASURED": "Photostability 24 hours", "RESULT": "<1%"}
{"MOL_SMILES": "Cc1cc2c(cc1C)C(=O)[C@]1(O)CCN(c3cccs3)C1=N2", "QUANTITY_MEASURED": "Photostability 24 hours", "RESULT": "<1%"}
